These entries and their values trace back to the supplement of paper PMC12667976.

B1: library; numbered along this chain (parent)
chain: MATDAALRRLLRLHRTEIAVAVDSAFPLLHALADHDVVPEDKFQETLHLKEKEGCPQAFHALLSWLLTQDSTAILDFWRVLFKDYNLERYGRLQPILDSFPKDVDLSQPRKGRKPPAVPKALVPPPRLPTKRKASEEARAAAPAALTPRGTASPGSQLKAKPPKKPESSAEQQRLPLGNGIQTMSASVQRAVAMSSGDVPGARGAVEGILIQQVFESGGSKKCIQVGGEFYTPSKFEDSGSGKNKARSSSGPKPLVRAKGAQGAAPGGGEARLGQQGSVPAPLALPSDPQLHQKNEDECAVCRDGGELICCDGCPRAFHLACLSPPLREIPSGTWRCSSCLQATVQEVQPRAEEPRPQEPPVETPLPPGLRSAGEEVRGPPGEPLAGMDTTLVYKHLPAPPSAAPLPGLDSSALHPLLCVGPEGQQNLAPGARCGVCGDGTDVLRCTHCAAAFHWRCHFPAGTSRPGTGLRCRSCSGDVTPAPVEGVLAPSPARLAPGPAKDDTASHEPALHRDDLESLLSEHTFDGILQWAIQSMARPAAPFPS

Variants of: B1
Test Protocol: AIRE transcriptional activation functional score (insulin promoter-GFP; nonsense median 0, synonymous median 1) (normalised score); higher = higher AIRE activity (more reporter activation)
Reported Conditions: with insulin promoter-GFP reporter in HEK293
Provide the recorded AIRE transcriptional activation functional score for the entries that follow.

Observe how each entry below is paired with its result.
Variant Identifier | Result
P365M | 1.49
R356A | 0.824
F59M | 0.656
V436G | 0.916
E51G | 0.279

Hey, can you go through the list below and give me AIRE transcriptional activation functional score for every item?
1. C449S
2. D502T

Response:
1: -0.103; 2: 0.991
